- METHOD: Hydrolysis to metronidazole in human plasma (in vitro)
- Assay type: in vitro ADME
- CONDITION SUMMARY: human plasma or blood, in vitro; read-out: half-life of hydrolysis in human plasma or blood
RECORDED ENDPOINT: half-life

Item: Cc1ncc([N+](=O)[O-])n1CCOC(=O)CN(C)C [metronidazole N,N-dimethylglycinate] | half-life: 9 to 12 min

###

- METHOD: Hydrolysis to metronidazole in 0.05M phosphate buffer pH 7.4
- Type: physicochemical
- CONDITION SUMMARY: pH 7.4, 37° C, read-out: t1/2 in buffer
Criterion: half-life meeting or surpassing 200 min. Met: 1 (yes). Not met: 0 (no).

COMPOUND: Cc1ncc([N+](=O)[O-])n1CCOC(=O)CN1CCN(C)CC1 [4-Methyl-1-piperazinoacetate]
CLASS NAME: 1 (yes)

Check if half-life >= 200 min (inclusive). Item: `Cc1ncc([N+](=O)[O-])n1CCOC(=O)CCN` 1 (yes)

Check if half-life >= 200 min (inclusive). Item: Cc1ncc([N+](=O)[O-])n1CCOC(=O)CN [Glycinate] 0 (no)

Check if half-life >= 200 min (inclusive). Item: Cc1ncc([N+](=O)[O-])n1CCOC(=O)CN(C)C [metronidazole N,N-dimethylglycinate] 1 (yes)

Check if half-life >= 200 min (inclusive). Item: CCCNCC(=O)OCCn1c([N+](=O)[O-])cnc1C [N--Propylglycinate] 0 (no)
